- Tested on: HCT-116 colon
- test-description: NCI tumour cell line growth inhibition, 48 h; in the data active = GI50 below about 0.43 µM; inactive = the rest
One label from this list, please: YES for active, NO for inactive

Reference set, count: 2
compound	category
COc1cc(NCCCCCCCNC(C)C)c2nccc(C)c2c1	NO
Oc1ccccc1-c1nn(CNc2ccccc2Cl)c(=S)o1	NO

**Query** Hey, what did the test say about `O=C(Nc1ccc(Cl)c(Cl)c1)NS(=O)(=O)c1cnccc1Oc1ccc(F)cc1` ?
**Result** NO

**Query** Could you please tell me the result logged for `C=C1C[C@@H]2CC[C@@]34C[C@H]5O[C@H]6[C@@H](O3)[C@H]3O[C@H](CC[C@@H]3O[C@H]6[C@@H]5O4)CC(=O)C[C@@H]3[C@@H](OC)[C@@H](C[C@H](O)CN)O[C@H]3C[C@H]3O[C@@H](CC[C@@H]1O2)C[C@@H](C)C3=C` in this assay?
**Result** YES

**Query** What classification did CCC1=CC2CN(C1)Cc1c([nH]c3ccccc13)[C@@](C(=O)OC)(c1cc3c(cc1OC)N(C)[C@H]1[C@@](O)(C(=O)OC)[C@H](OC(C)=O)[C@]4(CC)C=CCN5CC[C@]31[C@@H]54)C2 (stereo not given in full) end up with in this test?
**Result** YES

###

# key: entry, value: TGI
- System: LOX IMVI melanoma
- test-description: NCI tumour cell line growth inhibition, 48 h
State just the number; it will be interpreted in µM.

chemical-structure	recorded-result
NS(=O)(=O)c1cccc(NC(=S)NC(=O)Nc2ccc(Cl)c(Cl)c2)c1	33.4
COc1cc2c(cc1OC)-c1cc3ccccc3c(=O)n1CC2	27.5
Cc1ccc(C2=CC(=O)/C(=C\C(=O)c3ccc(Cl)cc3)O2)cc1	3.31

Below: the item to evaluate.
**Query** Answer with the recorded TGI for the compound listed here: `O=c1oc2ccc(I)cc2c(=O)n1-c1ccc(Cl)cc1F`
**Result** 11.4

###

- System: OVCAR-4 ovarian
- test-description: NCI tumour cell line growth inhibition, 48 h
Listed here: items and their measured TGI.
Field format: number, assumed µM, no unit text.

compound	experimental-readout	recorded-result
O=c1oc2ccc(I)cc2c(=O)n1-c1ccc(Cl)cc1F	TGI	19
CC(=O)OC1CCC2C3CCc4c(C)ccc(OS(=O)(=O)c5ccccc5)c4C3CCC12C (stereo not given)	TGI	88.4
O=C(/C=C/c1ccccc1)c1ccc(NCc2nc3ccccc3[nH]2)cc1	TGI	22.8
Cc1ccc(C2=CC(=O)/C(=C\C(=O)c3ccc(Cl)cc3)O2)cc1	TGI	33.5

Could you now look at the following compound, please?
**Query** Report measured TGI; entry is `CC(=O)OCc1c(O)c2c(c(O)c1COC(C)=O)C(=O)C=CC2=O`
**Result** 22.7

###

- Test system: UACC-257 melanoma
- test-description: NCI tumour cell line growth inhibition, 48 h
experimental-readout: GI50

// known answers, use as guide
compound	system-tested	experimental-readout	recorded-result
O=C1OCC2=C1C(c1ccccc1)c1cc3c(cc1N2CCO)OCO3 (configuration not stated)	UACC-257 melanoma	GI50	> 50 µM
COc1ccc(OC)c(Cn2cc3c(c2-c2ccccc2)CCc2cnoc2-3)c1	UACC-257 melanoma	GI50	30.7 µM
C=C1C(=O)O[C@H]2[C@H]1CC/C(C=Nc1c(N)cc(C(F)(F)F)cc1Br)=C\CC[C@@]1(C)O[C@@H]21	UACC-257 melanoma	GI50	1.64 µM
O=S(=O)(CCCl)c1ccc(Cl)cc1	UACC-257 melanoma	GI50	2.98 µM
C=C1C[C@@H]2CC[C@@]34C[C@H]5O[C@H]6[C@@H](O3)[C@H]3O[C@H](CC[C@@H]3O[C@H]6[C@@H]5O4)CC(=O)C[C@@H]3[C@@H](OC)[C@@H](C[C@H](O)CN)O[C@H]3C[C@H]3O[C@@H](CC[C@@H]1O2)C[C@@H](C)C3=C	UACC-257 melanoma	GI50	> 65.8 µM

**Query** Note down GI50 recorded for `CNC(=O)c1nn(C)c2c1C(C)(C)Cc1cnc(Nc3ccc(N4CCN(C)CC4)cc3)nc1-2`
**Result** 0.863 µM

**Query** Output measured GI50 for this item: `O=S(=O)(NCCCNc1nccc(-c2c(-c3ccc(F)cc3)nc3sccn23)n1)c1ccc2ccccc2c1`
**Result** > 100 µM

**Query** Consider the compound C=C1C(=O)O[C@H]2[C@H]1CC/C(COC(=O)NCC(C)c1ccc(CC(C)C)cc1)=C\CC[C@@]1(C)O[C@@H]21 (some centres not stated) and give its recorded GI50.
**Result** 5.01 µM

**Query** # return recorded GI50 for input `Oc1ccccc1-c1nn(CNc2ccccc2Cl)c(=S)o1`
**Result** > 100 µM

**Query** Provide one value: measured GI50 of `O=C(O)[C@@H](Cc1ccc2ccccc2c1)NC(=O)n1c2ccccc2c2ccccc21`
**Result** 11.9 µM

**Query** Give the reported value of GI50 for this record: `Cn1cc(C2=C(c3cn(C4CCN(Cc5ccccn5)CC4)c4ccccc34)C(=O)NC2=O)c2ccccc21`
**Result** 4.73 µM

**Query** Give the reported value of GI50 for this record: `CC(C)(C)C(=O)[CH-]C(=O)C(C)(C)C.CC(C)(C)C(=O)[CH-]C(=O)C(C)(C)C.CN(C)c1ccc([O-])cc1.CN(C)c1ccc([O-])cc1.[Ti+4]`
**Result** > 100 µM
